All figures here come from ChEMBL document CHEMBL2440046.

target: Neuronal acetylcholine receptor subunit alpha-7 (Rattus norvegicus, UniProt Q05941); assay: Displacement of [125I]-alpha-bungarotoxin from Sprague-Dawley rat brain alpha7 nAChR after 3 hrs by liquid scintillation counting analysis
Sequence (Q05941 whole entry): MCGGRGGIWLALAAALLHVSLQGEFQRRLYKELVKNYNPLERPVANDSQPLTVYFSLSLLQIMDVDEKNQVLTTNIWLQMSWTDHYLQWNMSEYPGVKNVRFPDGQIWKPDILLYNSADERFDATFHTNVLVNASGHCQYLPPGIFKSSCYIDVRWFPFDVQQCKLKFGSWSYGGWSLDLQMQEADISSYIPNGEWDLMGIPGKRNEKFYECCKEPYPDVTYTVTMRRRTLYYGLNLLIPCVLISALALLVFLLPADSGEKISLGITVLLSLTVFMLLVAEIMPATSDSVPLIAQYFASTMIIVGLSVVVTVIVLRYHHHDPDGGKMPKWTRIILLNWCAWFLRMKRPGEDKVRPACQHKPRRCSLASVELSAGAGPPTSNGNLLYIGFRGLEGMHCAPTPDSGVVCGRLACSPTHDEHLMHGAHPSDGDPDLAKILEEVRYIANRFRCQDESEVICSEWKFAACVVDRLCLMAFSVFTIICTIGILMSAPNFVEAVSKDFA
Documented pKi across a set of molecules
# reply with the number alone; pKi is -log10 of concentration in mol/L

# example entries with known answers
Molecule	Assayed Target	Quantity	Reported
COc1ccc(CC2C(c3cccnc3)=N[C@H]3CC[C@@H]2C3)c(OC)c1 (some centres undefined)	Neuronal acetylcholine receptor subunit alpha-7 (Rattus norvegicus, UniProt Q05941)	pKi	7.79
COc1ccc(CC2C(c3cccnc3)=N[C@@H]3CC[C@H]2C3)c(OC)c1 (some centres undefined)	Neuronal acetylcholine receptor subunit alpha-7 (Rattus norvegicus, UniProt Q05941)	pKi	5.36
Nc1ccc(CC2C(c3cccnc3)=N[C@H]3CC[C@@H]2C3)cc1 (some centres undefined)	Neuronal acetylcholine receptor subunit alpha-7 (Rattus norvegicus, UniProt Q05941)	pKi	8.46

Consider the additional molecule presented here.
[in] Give the value of pKi reported for the following: Oc1ccc(CC2C(c3cccnc3)=N[C@H]3CC[C@@H]2C3)cc1 (some centres undefined)
[out] 7.47
